# SYSTEM: purified porcine DP IV (Sus scrofa)
# Sequence (P22411 whole entry): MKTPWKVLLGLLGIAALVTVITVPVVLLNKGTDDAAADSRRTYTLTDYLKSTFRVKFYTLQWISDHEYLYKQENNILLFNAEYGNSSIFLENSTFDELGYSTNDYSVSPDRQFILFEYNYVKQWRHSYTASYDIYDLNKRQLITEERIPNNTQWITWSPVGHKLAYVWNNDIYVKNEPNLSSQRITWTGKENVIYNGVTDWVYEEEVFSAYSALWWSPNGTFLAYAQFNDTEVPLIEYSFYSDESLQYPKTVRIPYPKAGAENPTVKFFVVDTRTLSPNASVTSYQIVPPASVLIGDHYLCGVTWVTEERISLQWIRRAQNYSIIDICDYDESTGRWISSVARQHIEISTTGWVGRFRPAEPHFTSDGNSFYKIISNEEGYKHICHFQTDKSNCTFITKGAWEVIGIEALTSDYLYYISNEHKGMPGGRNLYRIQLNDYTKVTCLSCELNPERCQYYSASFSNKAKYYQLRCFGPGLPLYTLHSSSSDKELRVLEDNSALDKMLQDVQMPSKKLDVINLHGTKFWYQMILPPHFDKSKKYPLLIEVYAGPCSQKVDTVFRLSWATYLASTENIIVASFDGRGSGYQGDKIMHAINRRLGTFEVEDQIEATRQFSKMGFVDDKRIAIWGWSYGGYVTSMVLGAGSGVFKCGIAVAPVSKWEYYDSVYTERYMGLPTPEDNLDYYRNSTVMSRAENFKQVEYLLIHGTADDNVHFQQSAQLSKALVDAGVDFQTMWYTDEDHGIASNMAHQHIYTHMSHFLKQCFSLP
# ASSAY_DETAILS: Determination of IC50-values, Gly-Pro-pNA cleavage by DP IV
# Type: biochemical
# CONDITION_SET: Gly-Pro-pNA 0.4 mM, HEPES pH 7.6, 30° C.; read-out: IC50
Square brackets hold non-standard residues; d marks the D form. Peptide text beside a SMILES is read from it. * marks the point of attachment. Aoc(2) = CCCCCC[C@H](N)C(=O)O; Tle = CC(C)(C)[C@H](N)C(=O)O; Nle = CCCC[C@H](N)C(=O)O; Nva = CCC[C@H](N)C(=O)O; Bn = c1ccc(C*)cc1
METRIC_NAME: IC50 (µM)

{"COMPOUND": "CCCCCC[C@H](N)C(=O)N1CCC[C@H]1C(=O)N[C@H](C(=O)O)[C@@H](C)CC [AOA-Pro-Ile, 2-Amino octanoic acid-Pro-Ile] (H-[Aoc(2)]-Pro-Ile-OH)", "SYSTEM": "purified porcine DP IV (Sus scrofa)", "OBS_VALUE": 42.1}
{"COMPOUND": "CC(C)(C)[C@H](N)C(=O)N1CCC[C@H]1C(=O)N[C@H](C(=O)O)C(C)(C)C [t-butyl-Gly-Pro-t-butyl-Gly] (H-[Tle]-Pro-[Tle]-OH; N-terminus and C-terminus assumed)", "SYSTEM": "purified porcine DP IV (Sus scrofa)", "OBS_VALUE": 24.5}
{"COMPOUND": "CC[C@@H](C)[C@H](NC(=O)[C@@H]1CCCN1C(=O)[C@@H](N)C(C)C)C(=O)O", "SYSTEM": "purified porcine DP IV (Sus scrofa)", "OBS_VALUE": 18}
{"COMPOUND": "CC[C@H](C)[C@H](NC(=O)[C@@H]1CCCN1C(=O)[C@@H](N)COCc1ccccc1)C(=O)O [Ser(Bzl)-Pro-Ile] (H-Ser(Bn)-Pro-Ile-OH; N-terminus and C-terminus assumed)", "SYSTEM": "purified porcine DP IV (Sus scrofa)", "OBS_VALUE": 67.8}
{"COMPOUND": "CC(C)[C@H](NC(=O)[C@@H]1CCCN1C(=O)[C@@H](N)C(C)(C)C)C(=O)O [t-butyl-Gly-Pro-Val] (H-[Tle]-Pro-Val-OH; N-terminus and C-terminus assumed)", "SYSTEM": "purified porcine DP IV (Sus scrofa)", "OBS_VALUE": 13.8}
{"COMPOUND": "CC[C@H](C)[C@H](N)C(=O)N1CCC[C@H]1C(=O)N[C@H](C(=O)O)C(C)(C)C [Ile-Pro-t-butyl-Gly] (H-Ile-Pro-[Tle]-OH; N-terminus and C-terminus assumed)", "SYSTEM": "purified porcine DP IV (Sus scrofa)", "OBS_VALUE": 82.3}
{"COMPOUND": "CCC[C@H](N)C(=O)N1CCC[C@H]1C(=O)N[C@H](C(=O)O)[C@@H](C)CC [Nva-Pro-Ile] (H-[Nva]-Pro-Ile-OH; N-terminus and C-terminus assumed)", "SYSTEM": "purified porcine DP IV (Sus scrofa)", "OBS_VALUE": 24.9}
{"COMPOUND": "CC(C)[C@@H](NC(=O)[C@@H]1CCCN1C(=O)[C@@H](N)C(C)(C)C)C(=O)O [t-butyl-Gly-Pro-D-Val] (H-[Tle]-Pro-[dV]-OH; N-terminus and C-terminus assumed)", "SYSTEM": "purified porcine DP IV (Sus scrofa)", "OBS_VALUE": 112}

(A) CCCC[C@H](N)C(=O)N1CCC[C@H]1C(=O)N[C@H](C(=O)O)[C@@H](C)CC [Nle−Pro-Ile, Nle-Pro-Ile] (H-[Nle]-Pro-Ile-OH; N-terminus and C-terminus assumed)
(B) CC[C@H](C)[C@H](NC(=O)[C@@H]1CCCN1C(=O)[C@@H](N)C(C)(C)C)C(=O)O [t-butyl-Gly-Pro-Ile] (H-[Tle]-Pro-Ile-OH; N-terminus and C-terminus assumed)
input: Name the one with the greater IC50 value, either A or B as given. I would appreciate it if you answered with the label of your choice.
output: A
